Listed here: items and their measured Excretion.
system: Rattus norvegicus; test: Total Na+ milliequivalents excretion in diuretic test at the dose of 25 mg/kg; assay type: functional, Urine
Response body: numeric value in m equiv, unit text excluded.

Known Excretion results, listed for orientation:
compound: COC(OC)C1(C)NC(=O)c2ccccc2N1 (stereo not given)
system-name: Rattus norvegicus
unit-name: m equiv
observed-measurement: 1.2
--
compound: O=C1NC(c2ccc(C(F)(F)F)cc2)Nc2ncccc21 (stereo not given)
system-name: Rattus norvegicus
unit-name: m equiv
observed-measurement: 1.3
--
compound: O=C1NC(c2cccnc2)Nc2[nH]cnc21 (stereo not given)
system-name: Rattus norvegicus
unit-name: m equiv
observed-measurement: 1.4

// Input: O=C1NC(c2ccc([N+](=O)[O-])cc2)Nc2ncccc21 (stereo not given) . Output its Excretion only. 1.2

Give Excretion for CC(C)c1ccc(C2NC(=O)c3cccnc3N2)cc1 (stereo not given) 1.5

Read the entry CN1C(=O)c2cccnc2NC1c1ccco1 (stereo not given) and write its reported Excretion. 1.8
